- Tested on: human growth hormone receptor mRNA
- test: Inhibition of human growth hormone receptor mRNA levels by antisense oligonucleotides, quantitative real-time PCR, MCF7 cells
- Type: cell-based
- Parameters: concentration or dose not given beside the values
- conditionSummary: averages from three experiments
e = 2'-O-(2-methoxyethyl) (MOE); d = 2'-deoxy (DNA)
# Lookup of reported % INHIB (inhibitory effect on hGHR mRNA levels) keyed by entry
For clarity, give the value followed by its unit.

Worked set:
[
  {
    "substance": "272313 (antisense ATTGCGTGGTGCTTCCCATC; sugars from the 5' end e5 d10 e5, all phosphorothioate, methylation of C not given here) [compound 272313]",
    "assayedSystem": "human growth hormone receptor mRNA",
    "assayValue": "77%"
  },
  {
    "substance": "272326 (antisense ACTCAGCTCCTTCAGTAGGA; sugars from the 5' end e5 d10 e5, all phosphorothioate, methylation of C not given here) [compound 272326]",
    "assayedSystem": "human growth hormone receptor mRNA",
    "assayValue": "77%"
  },
  {
    "substance": "272356 (antisense ATGGAGGCTGGAGGTTCAAA; sugars from the 5' end e5 d10 e5, all phosphorothioate, methylation of C not given here) [compound 272356]",
    "assayedSystem": "human growth hormone receptor mRNA",
    "assayValue": "63%"
  },
  {
    "substance": "272341 (antisense GAGGCTATAGATCTTATCTC; sugars from the 5' end e5 d10 e5, all phosphorothioate, methylation of C not given here) [compound 272341]",
    "assayedSystem": "human growth hormone receptor mRNA",
    "assayValue": "65%"
  }
]

Query for human growth hormone receptor mRNA: what % INHIB (inhibitory effect on hGHR mRNA levels) does the record show for 272336 (antisense CAATCACTGCTACTAAACAG; sugars from the 5' end e5 d10 e5, all phosphorothioate, methylation of C not given here) [compound 272336] ? 69%

Param readout = % INHIB (inhibitory effect on hGHR mRNA levels); param system = human growth hormone receptor mRNA; param query = 272348 (antisense CACAGCTTTGAATTGAATTA; sugars from the 5' end e5 d10 e5, all phosphorothioate, methylation of C not given here) [compound 272348] ; response: value 57%
